Every entry's value here was drawn from ChEMBL document CHEMBL4765407.

// reported pIC50 per item
# Tested on: UMUC3
# Experiment Notes: Cytotoxicity against human UMUC3 cells assessed as reduction in cell viability measured after 72 hrs by SRB assay
# Assay type: functional, cell-based
# Condition Info: UMUC3, 72 h
Remember the convention: pIC50 equals -log10 of concentration in molar.

Some compounds with recorded pIC50:
CN(CCCNc1c2ccccc2nc2cccc([N+](=O)[O-])c12)CCCNc1ccc([N+](=O)[O-])c2[nH]c3ccccc3c(=O)c12; 7.54
O=c1c2cc(O)ccc2n2cnc3ccc(NCCCN4CCN(CCCNc5c6ccccc6nc6cccc([N+](=O)[O-])c56)CC4)c1c32; 7.74
Cc1ccc([N+](=O)[O-])c2c(NCCCNCCCNc3ccc(C)c4[nH]c5ccccc5c(=O)c34)c3ccccc3nc12; 6.98

Next item in the queue.
Input line: # get_value(readout='pIC50', item= `Cc1ccc(NCCCN2CCN(CCCNc3c4ccccc4nc4cccc([N+](=O)[O-])c34)CC2)c2c(=O)c3cc(O)ccc3[nH]c12` )
Output line: 8.02

* * *

# System: MCF7
# Experiment Notes: Cytotoxicity against human MCF7 cells assessed as reduction in cell viability measured after 72 hrs by SRB assay
# Type: functional, cell-based
# Condition Info: MCF7, 72 h
// reported IC50 per item
Just the number in nM, nothing appended.

Some molecules with recorded IC50:
Cc1ccc(NCCCN2CCN(CCCNc3c4ccccc4nc4cccc([N+](=O)[O-])c34)CC2)c2c(=O)c3cc(O)ccc3[nH]c12; 113
O=c1c2cc(O)ccc2[nH]c2c([N+](=O)[O-])ccc(NCCCN3CCN(CCCNc4c5ccccc5nc5cccc([N+](=O)[O-])c45)CC3)c12; 61

Input line: # get_value(readout='IC50', item= `O=c1c2cc(O)ccc2n2cnc3ccc(NCCCN4CCN(CCCNc5c6ccccc6nc6cccc([N+](=O)[O-])c56)CC4)c1c32` )
Output line: 62

* * *

# System: NCI-H460
# Experiment Notes: Cytotoxicity against human NCI-H460 cells assessed as reduction in cell viability measured after 72 hrs by SRB assay
# Assay type: functional, cell-based
# Condition Info: NCI-H460, 72 h
Measure Name: pIC50
Remember the convention: pIC50 equals -log10 of concentration in molar.

Cc1ccc([N+](=O)[O-])c2c(NCCCN(C)CCCNc3ccc([N+](=O)[O-])c4[nH]c5ccccc5c(=O)c34)c3ccccc3nc12; 7.26

Input line: # get_value(readout='pIC50', item= `O=c1c2ccccc2n2cnc3ccc(NCCCN4CCN(CCCNc5c6ccccc6nc6cccc([N+](=O)[O-])c56)CC4)c1c32` )
Output line: 7.82

Input line: # get_value(readout='pIC50', item= `Cc1ccc([N+](=O)[O-])c2c(NCCNc3ccc(C)c4[nH]c5ccccc5c(=O)c34)c3ccccc3nc12` )
Output line: 6.43

Input line: # get_value(readout='pIC50', item= `Cc1cc(NCCCN(C)CCCNc2ccc3ncn4c5ccc(O)cc5c(=O)c2c34)c([N+](=O)[O-])c2cc3ccccc3nc12` )
Output line: 7.02

* * *

// reported ΔTm per item
# Test system: Quadruplex DNA
# Experiment Notes: Stabilization of 5'-FAM/3'-TAMRA labeled c-Myc promoter G4 quadruplex DNA FPu18 (unknown origin) assessed as change in melting temperature at 10 microM measured after 15 mins by FRET assay
# Type: nucleic-acid assay
Just the number in °C, nothing appended.

Input line: Form field: ΔTm recorded for `CN(CCCNc1c2ccccc2nc2cccc([N+](=O)[O-])c12)CCCNc1ccc([N+](=O)[O-])c2[nH]c3ccccc3c(=O)c12` with Quadruplex DNA (enter value)
Output line: 19.4

Input line: Form field: ΔTm recorded for `Cc1cc(NCCCN(C)CCCNc2ccc3ncn4c5ccccc5c(=O)c2c34)c([N+](=O)[O-])c2cc3ccccc3nc12` with Quadruplex DNA (enter value)
Output line: 21.9

Input line: Form field: ΔTm recorded for NC(CCN1CCN(CCCNc2ccc3nnn4c5ccccc5c(=O)c2c34)CC1)c1ccc2nc3ccccc3cc2c1[N+](=O)[O-] (centres undefined) with Quadruplex DNA (enter value)
Output line: 33.2
